target: Protein translocase subunit SecA (Escherichia coli (strain K12)) (UniProt P10408); experiment: Assay to Identify E. coli SecA ATPase Inhibitors; type: functional; design: scale not given: direction of the effect not stated beside the values; details: 30 µM
Sequence (P10408 whole entry): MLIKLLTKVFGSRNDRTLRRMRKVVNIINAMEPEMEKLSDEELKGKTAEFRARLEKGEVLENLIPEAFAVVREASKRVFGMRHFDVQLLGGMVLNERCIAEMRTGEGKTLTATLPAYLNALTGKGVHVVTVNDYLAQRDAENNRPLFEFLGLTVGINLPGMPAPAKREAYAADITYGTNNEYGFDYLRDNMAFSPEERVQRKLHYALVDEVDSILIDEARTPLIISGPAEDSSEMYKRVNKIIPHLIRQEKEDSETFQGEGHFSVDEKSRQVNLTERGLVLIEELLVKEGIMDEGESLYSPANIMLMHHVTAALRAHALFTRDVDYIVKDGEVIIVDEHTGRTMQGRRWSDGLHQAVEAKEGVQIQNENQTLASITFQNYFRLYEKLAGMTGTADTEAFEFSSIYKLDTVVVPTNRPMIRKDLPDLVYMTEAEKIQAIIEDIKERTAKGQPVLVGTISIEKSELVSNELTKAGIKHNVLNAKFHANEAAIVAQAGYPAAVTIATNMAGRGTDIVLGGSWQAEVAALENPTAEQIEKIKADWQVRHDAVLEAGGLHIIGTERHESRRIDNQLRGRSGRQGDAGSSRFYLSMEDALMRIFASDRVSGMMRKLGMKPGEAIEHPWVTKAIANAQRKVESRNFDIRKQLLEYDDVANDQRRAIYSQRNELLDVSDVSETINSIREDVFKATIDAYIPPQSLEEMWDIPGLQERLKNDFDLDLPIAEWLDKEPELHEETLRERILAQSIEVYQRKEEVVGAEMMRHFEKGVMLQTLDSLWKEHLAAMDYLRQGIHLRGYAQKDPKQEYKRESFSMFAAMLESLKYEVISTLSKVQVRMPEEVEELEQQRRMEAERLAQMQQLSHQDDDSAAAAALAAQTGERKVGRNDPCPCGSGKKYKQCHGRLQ
Results with a measured potency or affinity are listed apart.
Hi there, I'd appreciate the recorded Percent Effect for every entry that follows.
Give bare numbers, in %.

Consider the following illustrative entries.
>>> test_result("O=C1CC2(CCN(CC3CC3)C2)CN1c1cccnc1 (stereo unspecified)")
-0.0321
>>> test_result("c1cc(CO[C@@H]2CC[C@H]3[C@H]2OCCN3CC2CCOCC2)ccn1")
1.51
>>> test_result("CCn1cc(CN2CCCN(C(=O)Cc3ccc(C)nc3)CC2)cn1")
-6.08

I'm hoping you can list Percent Effect for every compound here, please.
1. NC(=O)N1C[C@H]2CN(Cc3nccs3)C[C@H]2C1
2. c1cc(CN2CCO[C@H]3[C@H](OCC4CCCC4)CC[C@@H]32)ccn1
3. O=C(N[C@H]1CN[C@H]2CCCO[C@H]21)c1cccnc1
4. O=C1CC2(CCN(Cc3ccccn3)C2)CN1c1cncnc1 (stereo unspecified)
5. CC(C)=CCN1C[C@H]2CC[C@@H]1CN(C(=O)c1c[nH]c(=O)c(Cl)c1)C2
6. COc1ccc2c(ccn2CCN)c1
7. CN(C)[C@@H]1CCN(C(=O)Cc2ccc(F)cc2)[C@H]1Cc1cnn(C)c1
8. COCCN1CCN(Cc2ccncc2)[C@H]2CS(=O)(=O)C[C@H]21

1: 0.982; 2: -2.78; 3: 1.71; 4: -0.821; 5: -4.07; 6: -4.08; 7: -0.511; 8: -10.2

---

target: Shiga toxin 2 (Escherichia coli O157:H7) (UniProt P09385+P09386); assay: E. coli 0.157:H7 Shiga Toxin SOP - stx2 screening assay; assay type: functional; set-up: scale not given: direction of the effect not stated beside the values; details: 30 µM
test readout: Percent Effect
Give the figure together with its unit, number first.

Consider the following illustrative entries.
>>> test_result("CCc1nc(C2CCCN(C(=O)c3cccc4c3ccn4C)C2)no1 (stereo unspecified)")
"4.78%"
>>> test_result("Cc1cc(N2CCC(Cc3ccccc3)CC2)nc(-c2ccncc2)n1")
"-32.9%"
>>> test_result("Cc1ccc(C(=O)N2CCn3cc(CN4CCCCC4)nc3C2)o1")
"-27.2%"
>>> test_result("CCc1nc(CN2CCCC(NCc3ncc(C(C)(C)C)o3)C2)no1 (stereo unspecified)")
"2.13%"
>>> test_result("Cn1ccnc1COc1ccc(CO)cc1")
"-14.5%"
>>> test_result("Cc1ncsc1C(=O)N1CCCC(c2noc(C(C)C)n2)C1 (stereo unspecified)")
"-6.13%"
>>> test_result("COc1c(CNC2CCN(c3ncccn3)CC2)c(C(C)C)nn1C")
"30.1%"
>>> test_result("CC(C)c1nc(C2CCCN(C(=O)Cc3cccnc3)C2)no1 (stereo unspecified)")
"23.6%"

I'm hoping you can list Percent Effect for every molecule here, please.
1. CCOc1ccc(N2CCCN=C2NC(=O)c2ccccc2C)cc1
2. O=C(c1cccnc1)N1C[C@@H]2CC[C@H](C1)N(Cc1ncc[nH]1)C2
3. Cc1ccc(CC(=O)N2Cc3nccn3CC(Cn3cccn3)C2)cc1 (stereo unspecified)

1. -57.5%
2. -0.806%
3. -2.6%
